protocolNotes: Microsomal stability assay, human liver microsomes
Assay type: in vitro ADME
conditionLabel: human pooled liver microsomes 0.5 mg/mL, 1 μM test compound
measuredAttribute: Clint (estimated intrinsic clearance), Human (mL/min/kg body weight)
Quick note: give the figure in mL/min/kg body weight, leave out the unit.

Below, each entry is followed by its recorded Clint (estimated intrinsic clearance), Human result.
| compound | assayResult |
| --- | --- |
| O=C(N[C@@H](Cn1ccnc1)c1ccc(-c2ccc(F)cc2)cc1Cl)c1ccc(-c2nnc(-c3ccccc3)o2)cc1 [VFV-Cl] | 13.9 |
| O=C(N[C@@H](Cn1ccnc1)c1ccc(Cl)cc1Cl)c1ccc(-c2nnc(-c3ccc(F)c(F)c3)o2)cc1 [Compound 9] | 7.53 |

Now turn to the next compound.
Prompt line: Would you kindly share the measured Clint (estimated intrinsic clearance), Human for O=C(N[C@@H](Cn1ccnc1)c1ccc(-c2ccc(F)cc2)cc1Cl)c1ccc(-c2nnc(-c3ccccn3)o2)cc1 [Compound 2] ?
Response line: 22.3
